Attribution: ChEMBL document CHEMBL1133284

system: Nakaseomyces glabratus; experiment: In vitro minimum inhibitory concentration of compound was determined against Candida glabrata after 48 hr; assay type: functional
quantityKind: MIC

* CC1C=C(c2ccccc2)C(=O)O1 (configuration not stated) | > 1000 µM
* CC1C=C(c2cccc(F)c2)C(=O)O1 (configuration not stated) | > 1000 µM
* Cc1ccc(C2=CC(C)OC2=O)cc1 (configuration not stated) | > 1000 µM
* CC1C=C(c2ccc(Cl)c(Cl)c2)C(=O)O1 (configuration not stated) | > 500 µM
* CC[C@@H]1C=C(c2ccc(C)cc2)C(=O)O1 | > 500 µM
* CC1C=C(c2ccc(Cl)cc2)C(=O)O1 (configuration not stated) | 1000 µM
* CC1C=C(c2ccc(Br)cc2)C(=O)O1 (configuration not stated) | 1000 µM
